Data origin, for the record: PubChem BioAssay (NCATS)

test system: CP238; assay: qHTS profiling for inhibitors of Plasmodium falciparum proliferation (AID 504749); note: nearly all actives have a fitted effect of over 60% in size; conditions: P. falciparum in erythrocytes, SYBR Green DNA, 72 h; series mostly up to 28.7 µM
Inconclusive results are not listed. Calls of active or inactive are those of the source. Calls come from the whole dose curve; as a rule, active = well fitted inhibition curve with a large enough effect; inconclusive = small, poorly fitted or top-dose-only effect; inactive = flat fitted curve, though single readings scatter.
parameter: outcome

Worked cases, outcome given:
NC(=O)n1c(O)c(C(=O)c2cccs2)c2cc(Cl)ccc21 ... inactive
C#C[C@]1(OC(C)=O)CC[C@H]2[C@@H]3CCC4=C/C(=N/O)CC[C@@H]4[C@H]3CC[C@@]21CC ... inactive
CCOC(=O)[C@H](CCc1ccccc1)N[C@@H](C)C(=O)N1[C@H](C(=O)O)C[C@H]2CCCC[C@@H]21 ... inactive
CCc1ccc(C(=O)C(C)CN2CCCCC2)cc1 (stereo not given) ... inactive

Then this compound:
## Task Recorded outcome for `O=C(Nc1ncc([N+](=O)[O-])s1)c1cccs1` , please?
## Result inactive

====

tested on: CP335; experiment: qHTS profiling for inhibitors of Plasmodium falciparum proliferation (AID 504749); note: nearly all actives have a fitted effect of over 60% in size; details: P. falciparum in erythrocytes, SYBR Green DNA, 72 h; series mostly up to 28.7 µM
Results filed as inconclusive are left out. The source made the active and inactive calls. Calls follow the shape of the dose curve; as a rule, active = well fitted inhibition curve with a large enough effect; inconclusive = small, poorly fitted or top-dose-only effect; inactive = flat fitted curve, though single readings scatter.
Outcomes you can answer with include only these: active, inactive

These recorded examples may help you get a feel for the data.
OC1C(O)C(O)C(O)C(O)C1O (configuration not stated) ... inactive
O=C1C(O)=C(O)C(=O)C(O)=C1O ... inactive
CCCCC(CC)COC(=O)c1ccc(N(C)C)cc1 (configuration not stated) ... inactive
O=C(O)C1(C(=O)O)CCC1.[NH2-].[NH2-].[Pt+2] ... inactive
CC(=O)Nc1ccc(OC(=O)c2ccccc2OC(C)=O)cc1 ... inactive
O=C(O)c1ccc(S(=O)(=O)N(Cl)Cl)cc1 ... inactive
COc1ccccc1N1CCN(CCCCNC(=O)c2ccc(-c3ccc(C(C)=O)cc3)cc2)CC1 ... inactive
Nc1ccc(C(=O)NCC(=O)O)cc1 ... inactive
NCCNC(=O)c1ccc(Cl)cn1 ... inactive
O=C1C(CCS(=O)c2ccccc2)C(=O)N(c2ccccc2)N1c1ccccc1 (configuration not stated) ... inactive

## Task Would you mind telling me which call this test gave `CCOC(=O)C(C#N)=C(c1ccccc1)c1ccccc1` ?
## Result inactive

====

tested on: Dd2; assay: qHTS profiling for inhibitors of Plasmodium falciparum proliferation (AID 504749); note: nearly all actives have a fitted effect of over 60% in size; details: P. falciparum in erythrocytes, SYBR Green DNA, 72 h; series mostly up to 28.7 µM
Results filed as inconclusive are left out. Calls of active or inactive are those of the source. The call rests on the fitted dose curve; in most records, active means well fitted inhibition curve with a large enough effect; inconclusive means small, poorly fitted or top-dose-only effect; inactive means flat fitted curve, though single readings scatter.
Outcomes you can answer with include only these: active, inactive

These recorded examples may help you get a feel for the data.
CC(C)CCCC(C)N (stereo unspecified) ... inactive
CC(=O)N[C@@H](CCC(=O)O)C(=O)O ... inactive
CN1CCC(OC(c2ccccc2)c2ccccc2)CC1 ... active
COc1ccccc1N1CCN(CCCCNC(=O)c2ccc(-c3ccc(C(C)=O)cc3)cc2)CC1 ... inactive
CC(C)NCC(O)c1ccc2ccccc2c1 (stereo unspecified) ... active

## Task Would you mind telling me which call this test gave `CNCCCCOc1ccccc1Cc1ccccc1` ?
## Result active

====

experiment: qHTS of pediatric cancer cell lines to identify multiple opportunities for drug repurposing: Primary screen for MG 63 (6-TG R) cells (AID 1347105); conditions: MG 63 (6-TG R) viability, CellTiter-Glo, 48 h; series mostly up to 46 µM; note: nearly all actives have a fitted effect of over 50% in size
Records with an inconclusive call do not appear. Calls of active or inactive are those of the source. The call rests on the fitted dose curve; in most records, active means well fitted cell-killing curve with a large enough effect; inconclusive means small, poorly fitted or top-dose-only effect; inactive means no such curve, though single readings can be large or run the other way.
parameter: outcome

Worked cases, outcome given:
COc1cc([C@H]2Oc3cc([C@H]4Oc5cc(O)cc(O)c5C(=O)[C@@H]4O)ccc3O[C@@H]2CO)ccc1O ... inactive
OCc1ccccn1 ... inactive
C#C[C@]1(O)CC[C@H]2[C@@H]3CCC4=CC(=O)CC[C@@H]4[C@H]3CC[C@@]21CC ... inactive
CCCCCCCCOc1ccc(C(=O)c2ccccc2)c(O)c1 ... inactive

## Task Recorded outcome for `Cc1cc(CC(=O)O)c(C)n1-c1ccc(Cl)cc1` , please?
## Result inactive
